biological target: HIV-1 envelope glycoprotein gp120 of virus 92US727 (HIV-1); test: cell-based or functional assay
attributeMeasured: neutralization IC50

2.2.15-1 (antibody, human IgG1, kappa, V domains shown) VH: QVHLSQSGAAVTKPGASVRVSCEASGYKIRDHFIHWWRQAPGQGLQWVGWINPKTGQPNNPRQFQGRVSLTRHASWDFDTFSFYMDLKAVRSDDTAIYFCARQRSDYWDFDVWGSGTQVTVSS VL: DIQMTQSPSSLSARVGDTATITCQANGYLNWYQQRRGKAPKLLIYDGSKLERGVPARFSGRRWGQEYTLTINNLQPEDVATYFCQVYEFFGPGTRLDLKR | > 50 µg/mL

// switching to the query binder
Fill in: neutralization IC50 of 2.3.17-1 (antibody, human IgG1, kappa, V domains shown) VH: QVHLSQSGAAVTKPGASVRVSCEASGYNIRDYFIHWWRQAPGQGLQWVGWINPKTGQPNNPRQFQGRVSLTRHASWDFDTFSFYMDLKAVRSDDTAIYFCARQRSDYWDFDVWGSGTQVTVSS VL: DIQMTQSPSSLSARVGDTATITCQANGYLNWYQQRRGKAPKLLIYDGSKLERGVPARFSGRRWGQEYHLTINNLQPEDVATYFCQVYEFFGPGTRLDLKR is ___
> 50 µg/mL

Data provenance: patent US20240034774A1
